assay: chemical genetic growth profiling, strain panel (AID 1159580);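 note: tested at 20 µM; growth read once vehicle control cultures reached saturation at 30 °C; 1 = growth at the plate median or of vehicle wells; lower values mean less growth of the strain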; conditions: S. cerevisiae deletion strains, growth OD, locus YLR320W, strain mms22, active compounds read low
The whole screen tested about 5,500 compounds, of which about 2,000 (36%) were called active. Roughly 18% stayed inconclusive and do not appear here. The list shows a part of the results.
endpoint-name: normalized growth
Please give only the number in your answer, with no unit.

Guide cases for normalized growth, answers given:
So, `CC(=O)Oc1cc(-c2coc3cc(OC(C)=O)c(OC(C)=O)c(OC(C)=O)c3c2=O)cc(OC(C)=O)c1OC(C)=O` ? Its normalized growth was 0.9

So, `COC(=O)C1=C(C)NC(C)=C(C(=O)OC)C1c1ccccc1[N+](=O)[O-]` ? Its normalized growth was 0.864

So, `CC(=O)Oc1ccc(-c2cc(=O)c3c(OC(C)=O)cc(OC(C)=O)cc3o2)cc1` ? Its normalized growth was 0.958

Continuing:
So, C=C1C(N)CC2CC1C2(C)C (centres undefined) ? Its normalized growth was 1

So, `NS(=O)(=O)c1cc2c(cc1C(F)(F)F)NCNS2(=O)=O` ? Its normalized growth was 0.988

====

test: chemical genetic growth profiling, strain panel (AID 1159580);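 note: tested at 20 µM; growth read once vehicle control cultures reached saturation at 30 °C; 1 = growth at the plate median or of vehicle wells; lower values mean less growth of the strain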; conditions: S. cerevisiae deletion strains, growth OD, locus YMR129W, active compounds read low
The whole screen tested about 5,500 compounds, of which about 2,000 (36%) were called active. Inconclusive results (about 18%) are left out. The list shows a part of the results.
normalized growth reference
Please give only the number in your answer, with no unit.

Guide cases for normalized growth, answers given:
So, `CCCCCCCCCCCCCCCC[n+]1ccccc1` ? Its normalized growth was 0.0538

So, `Cc1cc2cc3c(C)cc(=O)oc3c(C)c2o1` ? Its normalized growth was 1.02

So, `NCCc1ccc(O)c(O)c1` ? Its normalized growth was 1.01

So, `NCCc1ccc(O)cc1` ? Its normalized growth was 0.973

Continuing:
So, `CCCCCCc1ccc(O)cc1O` ? Its normalized growth was 0.976

So, `CN(C)CCC=C1c2ccccc2C=Cc2ccccc21` ? Its normalized growth was 0.99

So, `CN(C)CCC=C1c2ccccc2CCc2ccccc21` ? Its normalized growth was 0.971

====

test: chemical genetic growth profiling, strain panel (AID 1159580);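 note: tested at 20 µM; growth read once vehicle control cultures reached saturation at 30 °C; 1 = growth at the plate median or of vehicle wells; lower values mean less growth of the strain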; conditions: S. cerevisiae deletion strains, growth OD, locus YEL061C, strain CIN8, active compounds read low
Hit rate of the full screen: of about 5,500 compounds, about 2,000 (36%) were called active. Not shown: some 18% with an inconclusive outcome. Some of the results follow.
normalized growth reference
Please give only the number in your answer, with no unit.

Guide cases for normalized growth, answers given:
So, `O=C(O)/C=C(\CC(=O)O)C(=O)O` ? Its normalized growth was 0.996

So, `CC(C)(C)OC(=O)NC1CCN(C(=O)c2ccc(Cl)cc2Cl)CC1` ? Its normalized growth was 1

So, `Clc1ccc(-c2csc(-c3ccno3)n2)s1` ? Its normalized growth was 0.89

Continuing:
So, `Clc1ccc(Cl)cc1` ? Its normalized growth was 1

So, C=CCCCCCCCCCCCC(O)CC(O)CO (configuration not stated) ? Its normalized growth was 0.962

So, `Clc1cccc(-c2csc(Nc3cccnc3)n2)c1` ? Its normalized growth was 0.993

So, `O=c1[nH]c2cc(Cl)c(Cl)cc2[nH]c1=O` ? Its normalized growth was 1.01

So, `O=C(NNC(=O)c1ccccc1[N+](=O)[O-])c1ccc(Cl)cc1` ? Its normalized growth was 1.01

So, `CCCCCCCCCCCCCCCC[n+]1ccccc1` ? Its normalized growth was 0.0502

So, `Cc1cc(=O)c2c(O)c3c(cc2o1)OC(C)(C)CC3` ? Its normalized growth was 1

So, C=CCCCCCCCCCCCC(O)CC(O)CO (configuration not stated) (tested in a mixture with another compound) ? Its normalized growth was 0.177

So, `O=C(O)c1nc2cc(Cl)c(Cl)cc2[nH]c1=O` ? Its normalized growth was 0.998
